Measured Emax values are reported for all entries that follow.
target.or.system: Delta-type opioid receptor (Homo sapiens, UniProt P41143)
Sequence (P41143 whole entry): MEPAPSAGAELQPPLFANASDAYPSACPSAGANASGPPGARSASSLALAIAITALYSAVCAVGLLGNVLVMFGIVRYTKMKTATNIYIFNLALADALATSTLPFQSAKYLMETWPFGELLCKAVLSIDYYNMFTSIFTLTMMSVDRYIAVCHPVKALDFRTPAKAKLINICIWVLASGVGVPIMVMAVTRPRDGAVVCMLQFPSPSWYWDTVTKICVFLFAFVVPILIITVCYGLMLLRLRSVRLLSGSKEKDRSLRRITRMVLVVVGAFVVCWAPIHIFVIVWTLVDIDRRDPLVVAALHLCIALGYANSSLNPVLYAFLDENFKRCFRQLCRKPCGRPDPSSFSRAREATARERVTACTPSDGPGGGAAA
assay.text: Activity at human delta opioid receptor expressed in CHO cells by [35S]GTP-gamma-S binding assay
Format: functional, cell-based
Enter your answer as a number in %; do not include the unit.

CCCC[C@@H](NC(=O)[C@@H](CC(=O)O)NC(=O)[C@@H](Cc1ccccc1)NC(=O)OC(C)(C)C)C(=O)N[C@@H](Cc1cc2ccccc2[nH]1)C(=O)NNC(=O)[C@H](Cc1ccccc1)NC(=O)CNC(=O)[C@@H](C)NC(=O)[C@@H](N)Cc1ccc(O)cc1    99
CCCC[C@@H](NC(=O)[C@H](Cc1cc2ccccc2[nH]1)NC(=O)OC(C)(C)C)C(=O)N[C@H](CC(=O)O)C(=O)N[C@H](Cc1ccccc1)C(=O)NNC(=O)[C@H](Cc1ccccc1)NC(=O)CNC(=O)[C@@H](C)NC(=O)[C@@H](N)Cc1ccc(O)cc1    93
CCCC[C@H](NC(=O)[C@H](N)Cc1cc2ccccc2[nH]1)C(=O)N[C@@H](CC(=O)O)C(=O)N[C@@H](Cc1ccccc1)C(=O)NNC(=O)[C@H](Cc1ccccc1)NC(=O)CNC(=O)[C@@H](C)NC(=O)[C@@H](N)Cc1ccc(O)cc1    64

Here is the next item to consider.
Form: compound = `CCCC[C@H](NC(=O)[C@@H](Cc1cc2ccccc2[nH]1)NC(=O)OC(C)(C)C)C(=O)N[C@@H](CC(=O)O)C(=O)N[C@@H](Cc1ccccc1)C(=O)NNC(=O)[C@H](Cc1ccccc1)NC(=O)CNC(=O)[C@@H](C)NC(=O)[C@@H](N)Cc1ccc(O)cc1` ; Emax = 100
